Biological target: Serine/threonine-protein kinase Nek2 (Homo sapiens)
Sequence (whole entry): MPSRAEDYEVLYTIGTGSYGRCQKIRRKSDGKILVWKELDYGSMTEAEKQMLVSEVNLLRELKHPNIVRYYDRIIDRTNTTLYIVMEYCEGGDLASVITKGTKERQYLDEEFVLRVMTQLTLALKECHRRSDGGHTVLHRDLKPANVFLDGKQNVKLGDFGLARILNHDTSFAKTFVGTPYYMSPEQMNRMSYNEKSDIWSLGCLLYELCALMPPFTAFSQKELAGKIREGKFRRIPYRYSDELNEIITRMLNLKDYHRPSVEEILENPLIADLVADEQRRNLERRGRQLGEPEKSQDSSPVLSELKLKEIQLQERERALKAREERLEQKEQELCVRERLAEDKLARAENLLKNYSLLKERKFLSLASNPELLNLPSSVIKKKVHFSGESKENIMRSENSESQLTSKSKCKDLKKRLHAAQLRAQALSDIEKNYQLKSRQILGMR
Conditions: at 10 µM
Description: Millipore: Percentage of residual kinase activity of NEK2 at 10uM relative to control. Control inhibitor: Phosphoric acid* at 0.3uM. Buffer: 8 mM MOPS pH 7.0, 0.2 mM EDTA
Assignment: determine reported residual activity for the given compounds.
Give bare numbers, in %.

Read the entry "O=[N+]([O-])/C=C/c1ccc2c(c1)OCO2" and write its reported residual activity. 98

Read the entry "CCc1nc(-c2ccc(OC)cc2)[nH]c1-c1ccncc1" and write its reported residual activity. 105

Read the entry "O=c1[nH]c2ccccc2n1C1CCN(Cc2ccc(-c3nc4cc5[nH]cnc5cc4nc3-c3ccccc3)cc2)CC1" and write its reported residual activity. 84

Read the entry C[S+]([O-])c1ccc(-c2nc(-c3ccc(F)cc3)c(-c3ccncc3)[nH]2)cc1 (configuration not stated) and write its reported residual activity. 118

Read the entry "COc1cc(OC)c(/C=C2\C(=O)Nc3ccccc32)c(OC)c1" and write its reported residual activity. 91

Read the entry "COc1cc2ncnc(Nc3ccc(OCc4ccccc4)cc3)c2cc1OC" and write its reported residual activity. 113

Next, consider the following compound.
Read the entry "CC(C)(C)c1cc(C=C(C#N)C#N)cc(Br)c1O" and write its reported residual activity. 101

---

Assignment: determine reported residual activity for the given compounds.
Biological target: MAP kinase-activated protein kinase 5 (Homo sapiens)
Conditions: at 1 µM
One number for each entry, in %.

Solved entries:
With MAP kinase-activated protein kinase 5 (Homo sapiens) as the test system, provide measured residual activity for this compound: "COc1cc2ncnc(Nc3ccc(OCc4ccccc4)cc3)c2cc1OC" 111

With MAP kinase-activated protein kinase 5 (Homo sapiens) as the test system, provide measured residual activity for this compound: "CC(C)[C@H](CO)Nc1nc(Nc2cccc(Cl)c2)c2ncn(C(C)C)c2n1" 102

With MAP kinase-activated protein kinase 5 (Homo sapiens) as the test system, provide measured residual activity for this compound: "CC(C)(C)c1cc(C=C(C#N)C#N)cc(Br)c1O" 107

With MAP kinase-activated protein kinase 5 (Homo sapiens) as the test system, provide measured residual activity for this compound: "COC(=O)[C@@]1(O)C[C@H]2O[C@]1(C)n1c3ccccc3c3c4c(c5c6ccccc6n2c5c31)C(=O)NC4" 19

With MAP kinase-activated protein kinase 5 (Homo sapiens) as the test system, provide measured residual activity for this compound: C[S+]([O-])c1ccc(-c2nc(-c3ccc(F)cc3)c(-c3ccncc3)[nH]2)cc1 (stereo unspecified) 145

Next, consider the following compound.
With MAP kinase-activated protein kinase 5 (Homo sapiens) as the test system, provide measured residual activity for this compound: "COc1ccc2c(c[n+](C)c3c4cc5c(cc4ccc23)OCO5)c1OC" 84

---

Assignment: determine reported residual activity for the given compounds.
Biological target: Vascular endothelial growth factor receptor 2 (Homo sapiens) (UniProt P35968)
Sequence (P35968 whole entry): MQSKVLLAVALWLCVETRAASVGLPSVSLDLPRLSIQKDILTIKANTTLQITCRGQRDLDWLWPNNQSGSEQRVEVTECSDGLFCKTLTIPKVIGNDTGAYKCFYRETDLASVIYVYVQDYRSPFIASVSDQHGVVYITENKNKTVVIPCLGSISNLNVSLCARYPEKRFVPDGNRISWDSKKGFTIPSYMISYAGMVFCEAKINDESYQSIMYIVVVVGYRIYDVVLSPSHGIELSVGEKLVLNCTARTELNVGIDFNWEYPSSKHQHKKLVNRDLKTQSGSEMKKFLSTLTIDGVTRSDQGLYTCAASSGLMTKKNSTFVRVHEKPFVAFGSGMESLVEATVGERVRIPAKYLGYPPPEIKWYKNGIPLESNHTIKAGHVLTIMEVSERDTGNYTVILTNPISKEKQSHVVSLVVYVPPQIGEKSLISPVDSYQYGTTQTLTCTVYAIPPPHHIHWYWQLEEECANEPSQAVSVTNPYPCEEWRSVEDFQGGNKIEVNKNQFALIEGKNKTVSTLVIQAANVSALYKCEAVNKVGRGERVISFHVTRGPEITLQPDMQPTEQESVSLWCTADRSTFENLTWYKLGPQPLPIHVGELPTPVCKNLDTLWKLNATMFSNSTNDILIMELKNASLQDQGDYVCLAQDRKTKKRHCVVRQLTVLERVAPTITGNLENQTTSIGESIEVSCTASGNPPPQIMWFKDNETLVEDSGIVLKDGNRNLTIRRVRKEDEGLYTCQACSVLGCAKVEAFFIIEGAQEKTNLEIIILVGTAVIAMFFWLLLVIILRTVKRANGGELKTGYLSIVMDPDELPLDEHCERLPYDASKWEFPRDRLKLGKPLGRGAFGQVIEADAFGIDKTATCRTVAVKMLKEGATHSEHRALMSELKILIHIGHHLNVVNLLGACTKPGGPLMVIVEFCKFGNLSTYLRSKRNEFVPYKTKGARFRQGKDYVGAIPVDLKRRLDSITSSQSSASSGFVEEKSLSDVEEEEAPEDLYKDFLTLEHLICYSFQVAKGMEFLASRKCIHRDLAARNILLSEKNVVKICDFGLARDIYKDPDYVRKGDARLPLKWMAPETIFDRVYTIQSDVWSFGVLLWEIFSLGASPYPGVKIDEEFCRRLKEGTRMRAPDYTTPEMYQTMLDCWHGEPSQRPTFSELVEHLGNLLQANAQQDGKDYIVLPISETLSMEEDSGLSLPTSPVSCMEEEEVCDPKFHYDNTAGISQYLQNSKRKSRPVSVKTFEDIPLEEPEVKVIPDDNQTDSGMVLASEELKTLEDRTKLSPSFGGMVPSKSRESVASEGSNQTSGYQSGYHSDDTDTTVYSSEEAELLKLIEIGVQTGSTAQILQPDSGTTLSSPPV
Details: at 1 µM
Answers are plain numbers, in %.

Solved entries:
Read the entry "CC(C)(C)c1cc(C=C(C#N)C#N)cc(Br)c1O" and write its reported residual activity. 107

Read the entry "c1cc(-c2cnn3cc(-c4ccc(OCCN5CCCCC5)cc4)cnc23)ccn1" and write its reported residual activity. 4

Read the entry "COc1ccc2c(c1)/C(=C/c1cnc[nH]1)C(=O)N2" and write its reported residual activity. 47

Read the entry "CCn1cnc2c(Nc3cccc(Cl)c3)nc(N[C@@H]3CCCC[C@@H]3N)nc21" and write its reported residual activity. 85

Hi! Can you tell me residual activity for each of these compounds?
1. O=c1[nH]c2ccccc2n1C1CCN(Cc2ccc(-c3nc4cc5[nH]cnc5cc4nc3-c3ccccc3)cc2)CC1
2. O=C1c2ccccc2-c2nc3nnnn3nc21
3. O=[N+]([O-])/C=C/c1ccc2c(c1)OCO2

1: 107; 2: 109; 3: 101

Hi! Can you tell me residual activity for each of these compounds?
1. C[S+]([O-])c1ccc(-c2nc(-c3ccc(F)cc3)c(-c3ccncc3)[nH]2)cc1 (centres undefined)
2. N/C(=N\[N+](=O)[O-])N/N=C\c1ccc(-c2cccc([N+](=O)[O-])c2)o1

1: 107; 2: 92

---

Target: Cyclin-dependent kinase 1/cyclin B1 (Homo sapiens) (UniProt P06493+P14635)
Sequence (P06493 whole entry, looked up): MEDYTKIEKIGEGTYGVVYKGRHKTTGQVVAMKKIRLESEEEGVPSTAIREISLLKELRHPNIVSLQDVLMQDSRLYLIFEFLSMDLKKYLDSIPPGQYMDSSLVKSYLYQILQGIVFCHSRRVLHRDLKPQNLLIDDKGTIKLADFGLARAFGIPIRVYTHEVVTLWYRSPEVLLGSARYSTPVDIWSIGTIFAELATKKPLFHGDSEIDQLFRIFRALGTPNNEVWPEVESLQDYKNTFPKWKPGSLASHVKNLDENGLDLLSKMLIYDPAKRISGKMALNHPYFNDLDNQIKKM
Sequence (P14635 whole entry, looked up): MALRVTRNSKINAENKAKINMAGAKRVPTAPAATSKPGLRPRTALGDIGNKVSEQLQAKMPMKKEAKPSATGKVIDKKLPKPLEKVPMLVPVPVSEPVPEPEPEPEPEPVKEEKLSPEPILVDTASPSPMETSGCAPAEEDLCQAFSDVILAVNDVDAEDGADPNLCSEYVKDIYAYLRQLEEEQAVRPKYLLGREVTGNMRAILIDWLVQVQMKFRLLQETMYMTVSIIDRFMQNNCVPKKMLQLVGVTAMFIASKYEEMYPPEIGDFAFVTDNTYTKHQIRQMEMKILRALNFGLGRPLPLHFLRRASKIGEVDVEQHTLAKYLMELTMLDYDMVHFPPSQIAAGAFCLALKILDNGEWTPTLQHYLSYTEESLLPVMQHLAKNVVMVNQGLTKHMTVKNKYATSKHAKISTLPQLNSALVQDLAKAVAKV
Settings: at 1 µM
Assignment: determine reported residual activity for the given molecules.
Numbers only, in %.

Solved entries:
Read the entry "COc1cc2ncnc(Nc3ccc(OCc4ccccc4)cc3)c2cc1OC" and write its reported residual activity. 104

Read the entry "CCn1cnc2c(Nc3cccc(Cl)c3)nc(N[C@@H]3CCCC[C@@H]3N)nc21" and write its reported residual activity. 19

Read the entry "O=C1Nc2ccc3ncsc3c2/C1=C/c1c[nH]cn1" and write its reported residual activity. 1

Next, consider the following molecule.
Read the entry "O=C1c2ccccc2-c2nc3nnnn3nc21" and write its reported residual activity. 113

---

Molecular target: G protein-coupled receptor kinase 5 (Homo sapiens) (UniProt P34947)
Sequence (P34947 whole entry, looked up): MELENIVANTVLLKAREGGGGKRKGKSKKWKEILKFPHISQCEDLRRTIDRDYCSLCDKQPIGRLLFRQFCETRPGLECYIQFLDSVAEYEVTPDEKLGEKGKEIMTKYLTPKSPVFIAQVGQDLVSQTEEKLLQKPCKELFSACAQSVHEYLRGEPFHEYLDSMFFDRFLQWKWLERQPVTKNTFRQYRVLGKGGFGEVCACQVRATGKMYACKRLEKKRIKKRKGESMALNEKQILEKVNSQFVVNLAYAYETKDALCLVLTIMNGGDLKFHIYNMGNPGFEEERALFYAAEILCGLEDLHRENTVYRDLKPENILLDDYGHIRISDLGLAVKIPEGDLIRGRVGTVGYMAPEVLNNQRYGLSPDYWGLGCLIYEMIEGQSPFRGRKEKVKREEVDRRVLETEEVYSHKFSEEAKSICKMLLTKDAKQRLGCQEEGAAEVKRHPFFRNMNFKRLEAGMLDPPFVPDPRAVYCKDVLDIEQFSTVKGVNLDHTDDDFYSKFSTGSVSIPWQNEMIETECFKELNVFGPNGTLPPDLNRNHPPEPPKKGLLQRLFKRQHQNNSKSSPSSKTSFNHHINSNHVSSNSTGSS
Conditions: at 1 µM
OBSERVED_PROPERTY: residual activity (%)
One number for each entry, in %.

With G protein-coupled receptor kinase 5 (Homo sapiens) (UniProt P34947) as the test system, provide measured residual activity for this molecule: "O=C1NC(=O)C(c2cn(CCCO)c3ncccc23)=C1c1cnccn1" 100

With G protein-coupled receptor kinase 5 (Homo sapiens) (UniProt P34947) as the test system, provide measured residual activity for this molecule: "O=C(Nc1cccc(Nc2cc(Nc3cccc(C(F)(F)F)c3)ncn2)c1)C1CC1" 102

With G protein-coupled receptor kinase 5 (Homo sapiens) (UniProt P34947) as the test system, provide measured residual activity for this molecule: "CCCC(=O)Oc1ccc2[nH]c(C(=O)c3cc4ccccc4[nH]3)cc2c1" 104

With G protein-coupled receptor kinase 5 (Homo sapiens) (UniProt P34947) as the test system, provide measured residual activity for this molecule: "CC(C)[C@H](CO)Nc1nc(Nc2cccc(Cl)c2)c2ncn(C(C)C)c2n1" 97

With G protein-coupled receptor kinase 5 (Homo sapiens) (UniProt P34947) as the test system, provide measured residual activity for this molecule: "COc1cc2ncnc(Nc3cccc(Cl)c3)c2cc1OC" 108

Hi! Can you tell me residual activity for each of these molecules?
1. C[C@@H](N)[C@H]1CC[C@H](C(=O)Nc2ccncc2)CC1
2. NC(=O)c1ccc2[nH]c(-c3ccc(Oc4ccc(Cl)cc4)cc3)nc2c1
3. COC(=O)[C@@]1(O)C[C@H]2O[C@]1(C)n1c3ccccc3c3c4c(c5c6ccccc6n2c5c31)C(=O)NC4

92
93
40

---

Biological target: Myotonin-protein kinase (Homo sapiens)
Sequence (whole entry): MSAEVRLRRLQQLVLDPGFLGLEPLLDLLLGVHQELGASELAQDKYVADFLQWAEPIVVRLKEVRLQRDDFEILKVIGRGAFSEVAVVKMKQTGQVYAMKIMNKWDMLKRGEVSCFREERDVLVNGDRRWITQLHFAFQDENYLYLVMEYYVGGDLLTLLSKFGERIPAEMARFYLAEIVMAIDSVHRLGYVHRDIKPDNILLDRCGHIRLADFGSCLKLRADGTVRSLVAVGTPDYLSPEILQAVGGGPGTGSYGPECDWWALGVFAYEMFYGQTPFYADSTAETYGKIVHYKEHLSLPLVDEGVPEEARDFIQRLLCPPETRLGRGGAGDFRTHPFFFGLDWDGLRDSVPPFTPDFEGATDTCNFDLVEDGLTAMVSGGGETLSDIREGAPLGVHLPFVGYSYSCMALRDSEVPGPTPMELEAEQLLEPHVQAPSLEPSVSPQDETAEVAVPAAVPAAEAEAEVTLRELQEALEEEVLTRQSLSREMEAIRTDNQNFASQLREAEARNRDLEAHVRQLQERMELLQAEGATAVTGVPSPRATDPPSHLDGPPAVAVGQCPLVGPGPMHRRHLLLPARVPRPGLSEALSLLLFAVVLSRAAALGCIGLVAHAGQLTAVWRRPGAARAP
Conditions: at 10 µM
OBSERVED_PROPERTY: residual activity (%)
Give bare numbers, in %.

Solved entries:
With Myotonin-protein kinase (Homo sapiens) as the test system, provide measured residual activity for this molecule: "COc1cc2ncnc(Nc3ccc(OCc4ccccc4)cc3)c2cc1OC" 103

With Myotonin-protein kinase (Homo sapiens) as the test system, provide measured residual activity for this molecule: C[S+]([O-])c1ccc(-c2nc(-c3ccc(F)cc3)c(-c3ccncc3)[nH]2)cc1 (configuration not stated) 102

With Myotonin-protein kinase (Homo sapiens) as the test system, provide measured residual activity for this molecule: "CCn1cnc2c(Nc3cccc(Cl)c3)nc(N[C@@H]3CCCC[C@@H]3N)nc21" 80

Hi! Can you tell me residual activity for each of these molecules?
1. O=C1Nc2ccc3ncsc3c2/C1=C/c1c[nH]cn1
2. COc1ccc2c(c[n+](C)c3c4cc5c(cc4ccc23)OCO5)c1OC
3. O=[N+]([O-])/C=C/c1ccc2c(c1)OCO2
4. O=c1[nH]c2ccccc2n1C1CCN(Cc2ccc(-c3nc4cc5[nH]cnc5cc4nc3-c3ccccc3)cc2)CC1

105
126
134
143
